Kindly find below IC50 information for cGMP-specific 3',5'-cyclic phosphodiesterase (Homo sapiens, UniProt O76074) taken from the literature.
// units = nM; emit number, no label

The examples below pair each entry with its known result.
• CCCCN1C(=O)[C@H]2Cc3c([nH]c4ccccc34)[C@@H](c3ccoc3)N2C1=O (relative stereo) = 100
• CN1C(=O)c2[nH]c(CC3CCCC3)nc2N2C1=N[C@@H]1CCC[C@@H]12 = 34
• COc1ccc2c3c(n(CCC(C)C)c2c1)-c1nc2ccccc2c(=O)n1CC3 = 6170
• CCCOCCn1c(=O)nc(NCCN2CCOCC2)c2nnc(-c3ccc(OC)nc3)cc21 = 0.09
• FC(F)Oc1ccc(-c2ccnc3cc(-c4cccnc4)nn23)cc1OCC1CC1 = 3500
• O=C1[C@H]2Cc3c([nH]c4ccccc34)[C@@H](c3ccc4c(c3)OCO4)N2C(=O)CN1C1CCN(Cc2ccccc2)CC1 = 26
• CCCOc1ccccc1-c1nc2c(=O)n(C)c(=O)n(CC(C)C)c2[nH]1 = 60
• CCCOCCn1c(=O)c(NCC(=O)N2CCNCC2)nc2cnc(-c3ccc(OC)nc3)cc21 = 1.65

Given the entry COc1ccc2c(c1)C(CC(=O)Nc1nc(CC(=O)NO)cs1)CC2=O (stereo not drawn) , report its measured IC50. 3160

What measured IC50 goes with `Cc1nc2c([nH]1)C(=O)N(C)C1=N[C@@H]3CCC[C@@H]3N12` ? 2400

Form field: reported IC50 of `CC(C)(O)CCc1ccc(OCc2cc(-c3cccc(OC(F)F)c3)c3ncccc3c2)cc1` 11000
